Tested on: CR-N330K parasites
experiment: Growth inhibition assay (72 h, LDH activity)
Assay type: cell-based, Plasmodium falciparum
experimentalConditions: Plasmodium falciparum, Fig 3F, 0 mM GlcN, n = 3, read-out: EC50 M-833 (95% confidence interval)
assayMetric: EC50
Reply with the number and its unit after it.

With CR-N330K parasites as the test system, Cc1cc(Cl)c(S(=O)(=O)N2CCCC2)cc1OCC(=O)NC1CCCCC1 [M-833] showed EC50 of 9.5 µM

* * *

Tested on: CR-WT parasites
experiment: Growth inhibition assay (72 h, LDH activity)
Type: cell-based, Plasmodium falciparum
experimentalConditions: Plasmodium falciparum, read-out: EC50 W-991 (95% confidence interval), Fig 4C; CR-WT; 2.5 mM GlcN; n = 3
assayMetric: pEC50
Scale note: pEC50 = -log10(concentration in M).

For reference, reported pEC50 for "CC(C)(Nc1ccc(Cl)c(S(=O)(=O)N2CCOCC2)c1)C(=O)Nc1ccc(F)c(Cl)c1" stands at 9.81

* * *

System: CR-WT parasites
experiment: Growth inhibition assay (72 h, LDH activity)
Format: cell-based, Plasmodium falciparum
experimentalConditions: Plasmodium falciparum, read-out: EC50 W-991 (95% confidence interval), Fig 4C; CR-WT; 0 mM GlcN; n = 3
assayMetric: EC50 (nM)
Record the value in nM, omitting the unit from your answer.

For reference, reported EC50 for CC(C)(Nc1ccc(Cl)c(S(=O)(=O)N2CCOCC2)c1)C(=O)Nc1ccc(F)c(Cl)c1 [W-991] stands at 1.08

* * *

Test system: 3D7 P. falciparum parasites
experiment: Growth inhibition assay (72 h, LDH activity)
Type: cell-based, Plasmodium falciparum
experimentalConditions: Plasmodium falciparum, 3D7, Fig 1B; 3D7; 10 µM to 0.04 µM M-833; n = 3; unit only on x-axis label; read-out: EC50 (95% confidence interval)
assayMetric: EC50 (nM)
Record the value in nM, omitting the unit from your answer.

For reference, reported EC50 for Cc1cc(Cl)c(S(=O)(=O)N2CCCC2)cc1OCC(=O)NC1CCCCC1 [M-833] stands at 170

* * *

Test system: 3D7 P. falciparum parasites
experiment: Growth inhibition assay (72 h, LDH activity)
Assay type: cell-based, Plasmodium falciparum
experimentalConditions: Plasmodium falciparum, 3D7, Fig 4C; 3D7; 0 mM GlcN; n = 3; read-out: EC50 W-991 (95% confidence interval)
assayMetric: pEC50
Scale note: pEC50 = -log10(concentration in M).

For reference, reported pEC50 for "CC(C)(Nc1ccc(Cl)c(S(=O)(=O)N2CCOCC2)c1)C(=O)Nc1ccc(F)c(Cl)c1" stands at 9.03

* * *

Test system: CR-N330K parasites
experiment: Growth inhibition assay (72 h, LDH activity)
Assay type: cell-based, Plasmodium falciparum
experimentalConditions: Plasmodium falciparum, read-out: EC50 M-833 (95% confidence interval), Fig 3F, 2.5 mM GlcN, n = 3
assayMetric: EC50

With CR-N330K parasites as the test system, "Cc1cc(Cl)c(S(=O)(=O)N2CCCC2)cc1OCC(=O)NC1CCCCC1" showed EC50 of 8.73 µM

* * *

System: CR-WT parasites
experiment: Growth inhibition assay (72 h, LDH activity)
Type: cell-based, Plasmodium falciparum
experimentalConditions: Plasmodium falciparum, read-out: EC50 W-991 (95% confidence interval), Fig 4C; CR-WT; 0.25 mM GlcN; n = 3
assayMetric: pEC50
Scale note: pEC50 = -log10(concentration in M).

For reference, reported pEC50 for "CC(C)(Nc1ccc(Cl)c(S(=O)(=O)N2CCOCC2)c1)C(=O)Nc1ccc(F)c(Cl)c1" stands at 9.14

Measured values drawn from paper PMC11189555 for this set.
